# Protocol: Determination of kinetic solubility
# Type: physicochemical
# Condition Set: PBS, aqueous buffer, kinetic from dmso stock; pH 5.0; shaking at 25° C. for 2 hours; read-out: Kinetic solubility (μM) pH 5.0
Measured solubility kinetic at 2 h accompanies every entry in the list below.
Express it in µM; write the number only.

Recorded solubility kinetic at 2 h, per entry:
1. C=CCn1c(=O)c2cnc(Nc3ccc(C4CCN(CC5CCN(c6cccc7c6n(C)c(=O)n7C6CCC(=O)NC6=O)CC5)CC4)cc3)nc2n1-c1cccc(C(C)(C)O)n1 (stereo not shown) | 148
2. C=CCn1c(=O)c2cnc(Nc3ccc(N4CCC(CN(C)C5CCN(c6cccc7c6n(C)c(=O)n7C6CCC(=O)NC6=O)CC5)CC4)cc3)nc2n1-c1cccc(C(C)(C)O)n1 (stereo not shown) | 203
3. C=CCn1c(=O)c2cnc(Nc3ccc(N4CCN(CC5CCN(c6ccc(NC7CCC(=O)NC7=O)cc6F)CC5)CC4)cc3)nc2n1-c1ccc2c(n1)[C@@](O)(CC)CC2 (mixture of isomers) | 132

Q: Specify reported solubility kinetic at 2 h for the compound shown: C=CCn1c(=O)c2cnc(Nc3ccc(N4CCC(CN5CCC(c6cccc7c6n(C)c(=O)n7C6CCC(=O)NC6=O)CC5)CC4)cc3)nc2n1-c1cccc(C(C)(C)O)n1 (stereo not shown)
Ans: 55.7
